Cited source for all entries: patent US12180226B2

biological target: RIPK1 (recombinant GST-RIPK1 kinase domain, residues 1-327) (Homo sapiens (Human)); test: RIPK1-ADP-Glo Enzymatic Assay; type: biochemical; conditions: ADP-Glo; 25 nM GST-RIPK1, 300 μM ATP; assay lower limit ~25 nM; read-out: RIPK1 V0 Ec50
reported endpoint: EC50 (nM)
Lab book: enter the figure in nM, no units written.

The reported value for CCOC(=O)c1coc(-c2ccnc(N3CCC4(CC3)O[C@@H]3CC[C@@H](c5ccccc5)N3C4=O)c2)n1 [Example 4.173] in terms of EC50 is 69.2

Recorded EC50 (molecule N#CC1(NC(=O)c2nc(N3CCC4(CC3)O[C@@H]3CC[C@@H](c5cc(F)cc(F)c5)N3C4=O)ncc2F)CC1 [Example 7.12] ): 165

Per the records, this molecule ( Cc1ncc([C@@H]2CC[C@H]3OC4(CCN(c5ccnc6ccnn56)CC4)C(=O)N32)cc1F [Example 4.89] ) has EC50 equal to 29.4

###

biological target: RIPK1 (recombinant GST-RIPK1 kinase domain, residues 1-327) (Homo sapiens (Human), UniProt Q13546); assay: RIPK1-ADP-Glo Enzymatic Assay; assay type: biochemical; conditions: ADP-Glo; 25 nM GST-RIPK1, 300 μM ATP; assay lower limit ~25 nM; read-out: RIPK1 V0 Ec50
Sequence (Q13546 1-327): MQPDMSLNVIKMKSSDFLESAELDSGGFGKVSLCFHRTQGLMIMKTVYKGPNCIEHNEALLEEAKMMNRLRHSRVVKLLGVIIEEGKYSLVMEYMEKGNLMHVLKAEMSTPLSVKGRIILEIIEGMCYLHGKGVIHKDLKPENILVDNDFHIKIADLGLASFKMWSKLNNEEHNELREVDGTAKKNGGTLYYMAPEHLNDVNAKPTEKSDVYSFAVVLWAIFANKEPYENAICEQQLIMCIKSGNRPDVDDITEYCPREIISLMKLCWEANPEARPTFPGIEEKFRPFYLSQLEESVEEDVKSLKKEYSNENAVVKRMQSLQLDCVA
Exercise: state measured pEC50 for each of the molecules provided.
The scale used: pEC50 is minus the common logarithm of the concentration in molar units.

Entry Cc1cc2c(nc1N1CCC3(CC1)O[C@@H]1CC[C@@H](c4ccccc4)N1C3=O)CNC2=O [Example 4.187] ; pEC50 = 6.45

get_value(item= NC(=O)c1cc(N2CCC3(CC2)O[C@@H]2CC[C@@H](c4cc(F)cc(F)c4)N2C3=O)ncn1 [Example 4.185] , readout=pEC50) returns 7.08

Form field pEC50, entry O=C1N2[C@@H](CC[C@H]2c2ccccc2)OC12CCN(c1ncc(C3CC3)cn1)CC2 [Example 11.13] : 6.58

So, CC1CC2(CCN1C(=O)c1ncccc1F)O[C@@H]1CC[C@@H](c3cccc(F)c3)N1C2=O (stereo partly shown) [Example 6.159] ? Its pEC50 was 6.08

###

Provide the reported pEC50 of each item.
biological target: RIPK1 (recombinant GST-RIPK1 kinase domain, residues 1-327) (Homo sapiens (Human), UniProt Q13546); test: RIPK1-ADP-Glo Enzymatic Assay; assay type: biochemical; conditions: ADP-Glo; 25 nM GST-RIPK1, 300 μM ATP; assay lower limit ~25 nM; read-out: RIPK1 V0 Ec50
Units for pEC50: none; it is -log10 of a concentration expressed in mol/L.

// O=C(c1ccncn1)N1CCC2(CC1)O[C@@H]1CC[C@@H](c3cc(F)cc(F)c3)N1C2=O [Example 6.63] : pEC50 value = 7.24

In plain terms, CC1CC2(CCN1C(=O)c1ccccc1)O[C@@H]1CC[C@@H](c3cc(F)cc(F)c3)N1C2=O (stereo partly shown) [Example 6.106] has a documented pEC50 of 6.69

Item: O=C1N2[C@@H](CC[C@H]2c2cc(F)cc(F)c2)OC12CCN(c1ncnn3ccnc13)CC2 [Example 4.228] | pEC50: 7.10

###

target: RIPK1 (recombinant GST-RIPK1 kinase domain, residues 1-327) (Homo sapiens (Human), UniProt Q13546); experiment: RIPK1-ADP-Glo Enzymatic Assay; assay type: biochemical; details: ADP-Glo; 25 nM GST-RIPK1, 300 μM ATP; assay lower limit ~25 nM; read-out: RIPK1 V0 Ec50
Structures can show the parent of a compound that is named as a salt.
Binary label based on EC50 with cut-off 100 nM: below gives true, not below gives false.

Determine whether this molecule shows EC50 lower than 100 nM (ties excluded): Cn1ccc(C(=O)N2CCC3(CC2)O[C@@H]2CC[C@@H](c4cc(F)cc(F)c4)N2C3=O)n1 [Example 5.39]
false

Is 100 nM strictly greater than the molecule's reported EC50? molecule: N#Cc1ccc(N2CCC3(CC2)O[C@@H]2CC[C@@H](c4cccc(F)c4)N2C3=O)c(F)c1 [Example 4.53]
true

Consider CSc1cnc(N2CCC3(CC2)O[C@@H]2CC[C@@H](c4cc(F)cc(F)c4)N2C3=O)nc1 [Example 4.55] . Does its EC50 lie strictly below 100 nM?
false

Bench note: check whether O=C(c1nc2ccccc2s1)N1CCC2(CC1)O[C@@H]1CC[C@@H](c3cc(F)cc(F)c3)N1C2=O [Example 6.28] shows EC50 below 100 nM
true

Could you please tell me whether EC50 recorded for O=C1N2[C@@H](CC[C@H]2c2ccccc2)OC12CN(c1cccc3ncnn13)C2 [Example 13.22, TFA salt] is less than 100 nM?
true

Criterion: EC50 strictly below 100 nM. Is it met by CC(C)(O)C#Cc1ccc(C(=O)N2CCC3(CC2)O[C@@H]2CC[C@@H](c4cc(F)cc(F)c4)N2C3=O)cc1 [Example 5.26] ?
false

Lab note: confirm whether the reported EC50 for this molecule is below 100 nM, equality not counting. molecule: NC(=O)c1ccc(N2CCC3(CC2)O[C@@H]2CC[C@@H](c4ccccc4)N2C3=O)nc1Cl [Example 4.201]
true

Does this molecule meet the criterion EC50 < 100 nM? O=C(c1ccccc1)N1CCC2(O[C@@H]3CC[C@@H](c4ccccc4)N3C2=O)C(F)C1 (single isomer, unassigned) [Example 2.2]
true

Strictly below 100 nM in EC50? O=C1N2[C@H](CC13CCN(c1ccnc4c(F)cnn14)CC3)OC[C@H]2c1ccccc1 [Example 4.120]
true

Consider O=C(c1ccc(F)cc1F)N1CCC2(CC1)O[C@@H]1CC[C@@H](c3ccccc3)N1C2=O [Example 5.11] . Does its EC50 lie strictly below 100 nM?
true

For O=C1N2[C@@H](CC[C@H]2c2cc(F)cc(F)c2)OC12CC1CCC(C2)N1c1ccnc2c(F)cnn12 (some centres unmarked) [Example 4.254] , is the recorded EC50 below the cut-off of 100 nM?
false

Given CC1CN(c2cccc3ncnn23)CCC12O[C@@H]1CC[C@@H](c3cc(F)cc(F)c3)N1C2=O (some centres unmarked) [Example 4.266] , is recorded EC50 strictly lower than 100 nM?
true

Quick check: EC50 of CN(C)c1cccc(C(=O)N2CCC3(CC2)O[C@@H]2CC[C@@H](c4ccccc4)N2C3=O)c1 [Example 6.144] under 100 nM?
true

Is EC50 of CCc1ccnc(C(=O)N2CCC3(CC2)O[C@@H]2CC[C@@H](c4cc(F)cc(F)c4)N2C3=O)c1 [Example 6.79] strictly below 100 nM?
true

###

Give pEC50 for every item shown.
biological target: RIPK1 (recombinant GST-RIPK1 kinase domain, residues 1-327) (Homo sapiens (Human)); test: RIPK1-ADP-Glo Enzymatic Assay; type: biochemical; conditions: ADP-Glo; 25 nM GST-RIPK1, 300 μM ATP; assay lower limit ~25 nM; read-out: RIPK1 V0 Ec50
Counter-ions that a name gives are not always drawn.
pEC50 (log units): -log10 of the concentration in mol/L.

Given item Cc1nc(N2CCC3(CC2)O[C@@H]2CC[C@@H](c4cc(F)cc(F)c4)N2C3=O)ncc1OC(F)F [Example 4.58] , the value recorded as its pEC50 is 7.34

Documented pEC50 of O=C1N2[C@@H](CC[C@H]2c2cc(F)cc(F)c2)OC12CN(c1ccnc3ccnn13)C2 [Example 4.134] : 7.56

Value of measured pEC50 for the entry N#Cc1cc(F)cc(C(=O)N2CCC3(CC2)O[C@@H]2CC[C@@H](c4cc(F)cc(F)c4)N2C3=O)c1 [Example 5.15] : 7.01

Reported pEC50 of O=C(c1ccccc1)N1CCC2(CC1)O[C@@H]1CC[C@@H](c3ccc(F)cn3)N1C2=O [Example 17.6, TFA salt] : 7.03

Reported pEC50 for COc1ccnc(N2CCC3(CC2)O[C@@H]2CC[C@@H](c4ccccc4)N2C3=O)c1 [Example 11.30] was 6.72

Form: compound = Cc1cncc(C(=O)N2CCC3(CC2)O[C@@H]2CC[C@@H](c4cc(F)cc(F)c4)N2C3=O)n1 [Example 6.4] ; pEC50 = 6.12

Per the records, this compound ( O=C(c1c(Cl)nc2ccccn12)N1CCC2(CC1)O[C@@H]1CC[C@@H](c3cc(F)cc(F)c3)N1C2=O [Example 6.31] ) has pEC50 equal to 7.44

The value of pEC50 measured for the compound Cc1nc(N2CCC3(CC2)O[C@@H]2CC[C@@H](c4ccccc4)N2C3=O)ncc1-c1cnoc1 [Example 21.9] turned out to be 7.42

get_value(item= Cc1ccnc(C(=O)N2CCC3(CC2)O[C@@H]2CC[C@@H](c4cc(F)cc(F)c4)N2C3=O)n1 [Example 6.88] , readout=pEC50) returns 6.87

Per the records, this compound ( CCc1cnc(N2CCC3(CC2)O[C@@H]2CC[C@@H](c4cc(F)cc(F)c4)N2C3=O)nc1 [Example 4.60] ) has pEC50 equal to 6.34

Entry O=C1N2[C@@H](CC[C@H]2c2ccccc2)OC12CCN(c1nc3ccncc3o1)CC2 [Example 4.158] ; pEC50 = 7.29

So, O=C1N2[C@@H](CC[C@H]2c2ccccc2)OC12CCN(c1cc(-c3ccc(F)cc3)c([N+](=O)[O-])cn1)CC2 [Example 4.208] ? Its pEC50 was 7.25

Entry under test: O=C1N2[C@@H](CC[C@H]2c2ccccc2)OC12CCN(c1cnc(-c3ncco3)cn1)CC2 [Example 21.14] . Its pEC50 was 7.24

Record O=C(c1cc(F)ccc1F)N1CCC2(CC1)SC1CCC(c3ccccc3)N1C2=O (centres unmarked) [Example 1.24] . Reported pEC50: 7.64

So for Cc1ccccc1[C@@H]1CC[C@H]2OC3(CCN(c4ccnc5c(F)cnn45)CC3)C(=O)N21 [Example 4.255] , the logged pEC50 turned out to be 7.39
